Data provenance is patent US20240391954A1.

target: human MC4R (Homo sapiens, UniProt P32245); construct: host or cells: HEK-293 cells stably expressing the GScAMP22F split-luciferase cAMP sensor and hMC4R, G418 selection; assay: split-luciferase cAMP sensor assay, agonist mode (measurement window 1), hMC4R; type: cell-based; conditions: agonist mode, hMC4R stable cell line; read-out: MC4R cAMP EC50
Sequence (P32245 whole entry): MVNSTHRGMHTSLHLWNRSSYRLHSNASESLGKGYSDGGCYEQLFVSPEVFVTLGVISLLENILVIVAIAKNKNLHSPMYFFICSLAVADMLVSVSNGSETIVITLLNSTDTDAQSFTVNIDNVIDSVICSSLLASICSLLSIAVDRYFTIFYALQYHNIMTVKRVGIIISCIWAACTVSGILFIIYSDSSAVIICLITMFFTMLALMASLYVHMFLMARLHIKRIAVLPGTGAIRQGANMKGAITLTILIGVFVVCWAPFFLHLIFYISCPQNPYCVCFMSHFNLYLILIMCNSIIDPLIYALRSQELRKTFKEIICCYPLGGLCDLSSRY
Positions of bridges follow the written chain, without caps; N, C: chain ends. Non-standard residues stand in square brackets, D forms with d. Residues, ends and D or L forms follow the SMILES beside them. dPhe(4-Br) = N[C@H](Cc1ccc(Br)cc1)C(=O)O; dPhe(4-I) = N[C@H](Cc1ccc(I)cc1)C(=O)O; d(αMeF) = C[C@@](N)(Cc1ccccc1)C(=O)O; NMeR = CN[C@@H](CCCNC(=N)N)C(=O)O; Nle = CCCC[C@H](N)C(=O)O
measurement.label: EC50 (µM)
// note: answer is a bare numeric in µM

See these solved cases before continuing.
CC(=O)N[C@@H](CCCNC(=N)N)C(=O)N[C@H]1CSSC[C@@H](C(N)=O)NC(=O)[C@@H](Cc2c[nH]c3ccccc23)NC(=O)[C@H](CCCNC(=N)N)NC(=O)[C@@H](Cc2ccc(Br)cc2)NC(=O)[C@H](CCCNC(=N)N)N(C)C(=O)[C@@H](C)NC1=O [CTX-1248] (Ac-RC[dA][NMeR][dPhe(4-Br)]R[dW]C-NH2; disulfide 2-8 (inferred))	0.002
CC(=O)N[C@@H](CCCNC(=N)N)C(=O)N[C@H]1CSSC[C@@H](C(N)=O)NC(=O)[C@@H](Cc2c[nH]c3ccccc23)NC(=O)[C@H](CCCNC(=N)N)NC(=O)[C@@](C)(Cc2ccccc2)NC(=O)[C@H](CCCNC(=N)N)NC(=O)[C@@H](C)NC1=O [CTX-1279] (Ac-RC[dA]R[d(αMeF)]R[dW]C-NH2; disulfide 2-8)	0.072
CCCC[C@H](NC(=O)[C@H](CCCNC(=N)N)NC(C)=O)C(=O)N[C@H]1CSSC[C@@H](C(N)=O)NC(=O)[C@@H](Cc2c[nH]c3ccccc23)NC(=O)[C@H](CCCNC(=N)N)NC(=O)[C@@H](Cc2ccc(I)cc2)NC(=O)[C@H](Cc2c[nH]cn2)NC1=O [CTX-1233] (Ac-R[Nle]CH[dPhe(4-I)]R[dW]C-NH2; disulfide 3-8 (inferred))	0.0022
CC(=O)N[C@@H](CCCNC(=N)N)C(=O)N[C@H]1CSSC[C@@H](C(N)=O)NC(=O)[C@@H](Cc2c[nH]c3ccccc23)NC(=O)[C@H](CCCNC(=N)N)NC(=O)[C@@H](Cc2c[nH]c3ccccc23)NC(=O)[C@H](CCCNC(=N)N)NC(=O)[C@@H](C)NC1=O [CTX-1275] (Ac-RC[dA]R[dW]R[dW]C-NH2; disulfide 2-8 (inferred))	0.906
CC(=O)N[C@@H](CCCNC(=N)N)C(=O)N[C@H]1CSSC[C@@H](C(N)=O)NC(=O)[C@@H](Cc2c[nH]c3ccccc23)NC(=O)[C@H](CCCNC(=N)N)NC(=O)[C@@H](Cc2c[nH]c3ccccc23)NC(=O)[C@H](CCCNC(=N)N)NC(=O)[C@@H](C)NC1=O [CTX-1244] (Ac-RC[dA]R[dW]R[dW]C-NH2; disulfide 2-8 (inferred))	0.109

### Prompt Which value of EC50 has been reported for CCCC[C@H](NC(=O)[C@H](CCCNC(=N)N)NC(C)=O)C(=O)N[C@H]1CSSC[C@@H](C(N)=O)NC(=O)[C@@H](Cc2c[nH]c3ccccc23)NC(=O)[C@H](CCCNC(=N)N)NC(=O)[C@@H](Cc2ccc(Br)cc2)NC(=O)[C@H](CCCNC(=N)N)NC1=O [CTX-1232] (Ac-R[Nle]CR[dPhe(4-Br)]R[dW]C-NH2; disulfide 3-8 (inferred)) in the records?
### Response 0.0024
